Could you please report measured cytotoxicity at 10 µM for the items listed next?
- method.summary: Toxicity liver stage against HepG2, at 10uM
- Assay type: cell-based
- Parameters: test concentration 10 uM, cell line HepG2-A16-CD81EGFP
- experimental.conditions: human, HepG2-A16-CD81EGFP cells; read-out: INHIBITION
Numbers only, in %.

Here are 6 compounds together with their reported answers.
{"compound": "Cc1cc(CNCc2c(C)nn(C)c2N2CCOCC2)no1", "scale.unit": "%", "result": -8.11}
{"compound": "CC(C)C(NC(=O)NCCNc1ccccn1)c1cccs1 (centres undefined)", "scale.unit": "%", "result": -8.13}
{"compound": "COC1CCN(C(=O)c2ccccc2NCc2cccnc2)CC1", "scale.unit": "%", "result": -7.22}
{"compound": "COc1cc(F)ccc1C(C(=O)O)N1CCN(C2CCCCC2)CC1 (centres undefined)", "scale.unit": "%", "result": -8.93}
{"compound": "COCCCN1C(=O)CC[C@H]2CN(Cc3ccc4nonc4c3)CC[C@H]21", "scale.unit": "%", "result": 2.46}
{"compound": "O=C(NCC1CC1)C1CSCN1S(=O)(=O)c1ccccc1 (centres undefined)", "scale.unit": "%", "result": -4.43}

Could you report cytotoxicity at 10 µM for every entry in the following list?
1. Cn1ncc(-c2cc(-c3cccc(O)c3)nc(N)c2C#N)c1C1CC1
2. CC(C(=O)Nc1ccc(N2CCOCC2)nc1)n1cncn1 (centres undefined)
3. CC(O)CN1CCC(CNCc2cccc(C(F)(F)F)c2)CC1 (centres undefined)
4. CN1CCCC(N(C)C(=O)c2ccc(NC(=O)c3cc[nH]n3)cc2)C1 (centres undefined)

[out]
1: 79.1; 2: -33.9; 3: -15.2; 4: 0.624

====

- method.summary: Toxicity liver stage against HepG2, at 10uM
- Assay type: cell-based
- Parameters: test concentration 10 uM, cell line HepG2-A16-CD81EGFP
- experimental.conditions: human, HepG2-A16-CD81EGFP cells; read-out: INHIBITION
Exercise: for every item that follows, state its recorded cytotoxicity at 10 µM.
One number for each entry, in %.

Sample answers from the record:
{"compound": "CCCC(=O)Nc1sc(C(=O)OCC)c(C)c1C#N", "result": 8.29}
{"compound": "Cc1cc(C)n(C2CN(c3nc(-c4ccncc4)nc4c3CCC4)C2)n1", "result": -33.6}
{"compound": "Cc1ccc(Oc2ncccc2C(=O)O)c(C)c1", "result": 2.4}
{"compound": "Cc1nnc(SCCCNc2cc(C3CC3)ncn2)s1", "result": 19.8}

Hi! Can you tell me cytotoxicity at 10 µM for each of these compounds?
1. Cc1nn(C)cc1CN1CCC(c2ncc(Cl)cc2S(C)(=O)=O)CC1
2. CCC(CC)c1cc(C(=O)N2CCCC(n3cncn3)C2)on1 (stereo not drawn)
3. Cc1ccc(CN2CCNC(C(=O)NC3CC3)C2)cc1C (stereo not drawn)
4. O=C(CSC1=NS(=O)(=O)c2cc(Cl)ccc2N1)c1ccccc1

[out]
-0.1
-13.1
-3.41
13.6

Hi! Can you tell me cytotoxicity at 10 µM for each of these compounds?
1. CC(=O)N(Cc1ncc(C)o1)C1CCN(Cc2noc(C)n2)C1 (stereo not drawn)
2. CCN(Cc1ccco1)C(=O)NCc1nnc2n1CCCCC2
3. Cc1ccc(C)c(C(C)NC(=O)N2CCC(n3cncn3)CC2)c1 (stereo not drawn)
4. CC(NC(N)=O)C(=O)NCc1ccnc(Oc2ccc(F)cc2)c1 (stereo not drawn)

[out]
0
-4.73
-8.78
8.26

# return cytotoxicity at 10 µM for each item in the list
1. Cc1nc(C)n(CC2CCCCN2c2ccnc(-c3ccccc3)n2)n1 (stereo not drawn)
2. CC1Cc2ccccc2N1Cc1occc1C(=O)NCC(=O)N(C)C (stereo not drawn)
3. Cc1cc(N2CCCC2(C)c2nc(C)cc(C(=O)N(C)C)n2)ncn1 (stereo not drawn)
4. CC(C)Sc1nnnn1C1CCCC1

[out]
-1.17
8.13
-0.846
-8.61
